# System: CASKI
# experiment: Primary qHTS to identify gynecologic anti-cancer compounds using libraries of approved drugs and bioactive compounds (AID 1345084); further: on the % scale 0 is the no-effect control and ±100 the full control effect; nearly all actives have a fitted effect of over 55% in size
# testConditions: Gynecologic cancer cell panel viability, ATPlite luminescence, 48 h; series mostly up to 57.5 µM
Results filed as inconclusive are left out. Active and inactive are the calls of the source. The call rests on the fitted dose curve; in most records, active means well fitted cell-killing curve with a large enough effect; inconclusive means small, poorly fitted or top-dose-only effect, or effect the other way; inactive means flat fitted curve, though single readings scatter.
attributeMeasured: activity change, negative = cytotoxicity

[
  {
    "molecule": "CCCOC(=O)c1ccccc1",
    "experimentalTarget": "CASKI",
    "activity change, negative = cytotoxicity": "inactive"
  },
  {
    "molecule": "C/C(=C(\\CCOP(=O)(O)O)SC(=O)c1ccccc1)N(C=O)Cc1cnc(C)nc1N",
    "experimentalTarget": "CASKI",
    "activity change, negative = cytotoxicity": "2.61% [at 6.55 µM] (inactive)"
  },
  {
    "molecule": "O=c1cc[nH]c(=O)[nH]1",
    "experimentalTarget": "CASKI",
    "activity change, negative = cytotoxicity": "inactive"
  },
  {
    "molecule": "CCOc1ccc2ccccc2c1C(=O)N[C@@H]1C(=O)N2[C@@H]1SC(C)(C)[C@@H]2C(=O)O",
    "experimentalTarget": "CASKI",
    "activity change, negative = cytotoxicity": "inactive"
  },
  {
    "molecule": "CC1=C(CC(=O)O)c2cc(F)ccc2/C1=C\\c1ccc(S(C)(=O)=O)cc1",
    "experimentalTarget": "CASKI",
    "activity change, negative = cytotoxicity": "inactive"
  }
]

Which activity change, negative = cytotoxicity value belongs to "Cc1ncc(COP(=O)(O)O)c(C=O)c1O" ?
inactive

Proceed to "CC1(C)OC(=O)NC1=O"
inactive

Proceed to CC(O)CN(CCN(CC(C)O)CC(C)O)CC(C)O (stereo not given)
inactive

Proceed to "CC(C)c1c(C(=O)Nc2ccccc2)c(-c2ccccc2)c(-c2ccc(F)cc2)n1CC[C@@H](O)C[C@@H](O)CC(=O)O"
inactive

Proceed to "COc1ccc2cc1Oc1cc3c(cc1OC)CC[N+](C)(C)[C@H]3Cc1ccc(cc1)Oc1c(OC)c(OC)cc3c1[C@@H](C2)[N+](C)(C)CC3"
inactive
